Source of measurements: ChEMBL document CHEMBL2163268

target.system: Phosphatidylinositol 4,5-bisphosphate 3-kinase catalytic subunit delta isoform (Homo sapiens)
Sequence (O00329 whole entry, canonical isoform): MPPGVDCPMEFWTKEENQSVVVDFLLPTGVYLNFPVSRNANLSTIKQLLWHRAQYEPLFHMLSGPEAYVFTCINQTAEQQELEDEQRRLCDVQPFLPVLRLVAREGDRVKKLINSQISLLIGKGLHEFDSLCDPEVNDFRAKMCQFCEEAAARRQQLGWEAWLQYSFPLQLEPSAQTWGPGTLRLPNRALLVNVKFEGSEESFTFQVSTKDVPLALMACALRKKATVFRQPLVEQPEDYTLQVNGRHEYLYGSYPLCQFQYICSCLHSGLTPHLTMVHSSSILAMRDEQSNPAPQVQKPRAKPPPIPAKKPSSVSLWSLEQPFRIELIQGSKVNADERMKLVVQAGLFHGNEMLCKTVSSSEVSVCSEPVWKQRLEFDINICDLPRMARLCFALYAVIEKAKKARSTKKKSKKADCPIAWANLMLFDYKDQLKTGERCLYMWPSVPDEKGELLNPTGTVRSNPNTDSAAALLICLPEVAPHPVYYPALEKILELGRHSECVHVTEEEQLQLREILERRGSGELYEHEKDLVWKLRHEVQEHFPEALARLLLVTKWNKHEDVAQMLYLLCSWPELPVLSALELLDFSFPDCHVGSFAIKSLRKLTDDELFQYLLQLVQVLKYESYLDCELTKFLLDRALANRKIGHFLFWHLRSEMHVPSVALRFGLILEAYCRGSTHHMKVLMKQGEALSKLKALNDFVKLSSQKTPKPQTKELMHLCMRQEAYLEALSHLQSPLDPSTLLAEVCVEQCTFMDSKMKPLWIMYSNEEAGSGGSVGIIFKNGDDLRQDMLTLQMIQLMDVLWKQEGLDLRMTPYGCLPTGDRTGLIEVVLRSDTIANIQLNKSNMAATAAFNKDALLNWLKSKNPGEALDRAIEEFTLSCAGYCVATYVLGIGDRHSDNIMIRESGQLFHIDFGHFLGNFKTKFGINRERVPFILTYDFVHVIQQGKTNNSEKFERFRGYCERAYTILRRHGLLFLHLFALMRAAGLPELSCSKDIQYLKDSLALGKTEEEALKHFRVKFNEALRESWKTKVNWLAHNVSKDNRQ
test.method.notes: biochemical
Description: Inhibition of human N-terminal poly-His tagged-PI3Kdelta expressed in Sf9 baculovirus system co-expressing p85alpha after 20 mins by AlphaScreen assay
Recorded log10 of Ki values for a group of molecules are listed next.
endpoint.label: log10 of Ki (log10 of the value in nM)

| molecule | log10 of Ki |
| --- | --- |
| COc1ccc(Nc2ncc(CN3CCOCC3)cc2-c2nc(C)nc(N)n2)cn1 | 1.26 |
| Cc1nc(N)nc(-c2cccnc2Nc2cccc3[nH]ncc23)n1 | 2.11 |
| Cc1nc(-c2cccnc2Nc2cccc3[nH]ncc23)c2nc[nH]c2n1 | 2.54 |
| COc1ccc(Nc2ncc(CN3CCC(O)CC3)cc2-c2nc(C)nc(N)n2)cn1 | 1.80 |
| COc1ccc(Nc2ncc(CN3CCN(S(=O)(=O)N(C)C)CC3)cc2-c2nc(C)nc(N)n2)cn1 | 0.78 |
| COc1ccc(Nc2nccnc2-c2nc(C)nc(N)n2)cn1 | 2.48 |
| COc1ccc(Nc2ncc(CN3CCCN(S(C)(=O)=O)CC3)cc2-c2nc(C)nc(N)n2)cn1 | 1.32 |
| COc1ccc(Nc2ncccc2-c2nc(C)nc(N)n2)cn1 | 1.57 |
| Cc1nc(N)nc(-c2cccnc2Nc2cccc3[nH]ccc23)n1 | 1.40 |
| COc1ccc(Nc2ncc(CN3CCCCC3)cc2-c2nc(C)nc(N)n2)cn1 | 1.28 |
| COc1ccc(Nc2ncc(-c3cnn(C)c3)cc2-c2nc(C)nc(N)n2)cn1 | 0.78 |
| COc1ccc(Nc2ncc(CN3CCNCC3)cc2-c2nc(C)nc(N)n2)cn1 | 1.43 |
| COc1ccc(Nc2ncc(CN3CCN(C)CC3)cc2-c2nc(C)nc(N)n2)cn1 | 1.53 |
| Cc1ncnc(-n2c(Nc3cccc(O)c3)nc3ccccc32)n1 | 0.48 |
| COc1ccc(Nc2ncc(CN3CCC3)cc2-c2nc(C)nc(N)n2)cn1 | 1.70 |
| COc1ccc(Nc2ncc(CN3CCN(C(=O)N(C)C)CC3)cc2-c2nc(C)nc(N)n2)cn1 | 0.48 |
| COc1ccc(Nc2ncc(CN3CCC(S(C)(=O)=O)C3)cc2-c2nc(C)nc(N)n2)cn1 (racemic) | 0.48 |
